Below is a list of entries, each paired with its recorded melting point value.
recorded-endpoint: melting point

>>> recorded_result("COC(=O)N[C@@H](C(=O)N1CCC[C@H]1c1ncc(-c2cccc(C#CC#Cc3cccc(-c4cnc([C@@H]5CCCN5C(=O)[C@H](NC(=O)OC)C(C)C)[nH]4)c3)c2)[nH]1)C(C)C")
"103 to 105 °C"
>>> recorded_result("COC(=O)N[C@@H](CC(C)C)C(=O)N1CCC[C@H]1c1ncc(-c2cccc(C#CC#Cc3cccc(-c4cnc([C@@H]5CCCN5C(=O)[C@H](CC(C)C)NC(=O)OC)[nH]4)c3)c2)[nH]1")
"103.1 to 105.3 °C"
>>> recorded_result("COC(=O)N[C@H](CC(C)C)C(=O)N1CCC[C@H]1c1ncc(-c2cccc(C#CC#Cc3cccc(-c4cnc([C@@H]5CCCN5C(=O)[C@@H](CC(C)C)NC(=O)OC)[nH]4)c3)c2)[nH]1")
"111 to 113 °C"
>>> recorded_result("CCCCOC(=O)N[C@H](C(=O)N1CCC[C@H]1c1ncc(-c2ccc(C#CC#Cc3ccc(-c4cnc([C@@H]5CCCN5C(=O)[C@@H](NC(=O)OCCCC)C(C)C)[nH]4)cc3)cc2)[nH]1)C(C)C")
"136 to 138 °C"
>>> recorded_result("CCOC(=O)N[C@H](CC(C)C)C(=O)N1CCC[C@H]1c1ncc(-c2ccc(C#CC#Cc3ccc(-c4cnc([C@@H]5CCCN5C(=O)[C@@H](CC(C)C)NC(=O)OCC)[nH]4)cc3)cc2)[nH]1")
"129 to 132 °C"

* * *

We begin with a simple list: items and their reported melting point.
recorded-endpoint: melting point

>>> recorded_result("CCOC(=O)N[C@H](CC(C)C)C(=O)N1CCC[C@H]1c1ncc(-c2cccc(C#CC#Cc3cccc(-c4cnc([C@@H]5CCCN5C(=O)[C@@H](CC(C)C)NC(=O)OCC)[nH]4)c3)c2)[nH]1 [Compound 8a]")
"109 to 111 °C"
>>> recorded_result("COC(=O)N[C@@H](C(=O)N1CCC[C@H]1c1ncc(-c2ccc(C#CC#Cc3ccc(-c4cnc([C@@H]5CCCN5C(=O)[C@H](NC(=O)OC)c5ccccc5)[nH]4)cc3)cc2)[nH]1)c1ccccc1 [Compound 10b]")
"125 to 127 °C"
>>> recorded_result("CCOC(=O)N[C@H](C(=O)N1CCC[C@H]1c1ncc(-c2cccc(C#CC#Cc3cccc(-c4cnc([C@@H]5CCCN5C(=O)[C@@H](NC(=O)OCC)C(C)C)[nH]4)c3)c2)[nH]1)C(C)C [Compound 3a]")
"124 to 126.7 °C"
>>> recorded_result("COC(=O)N[C@@H](C(=O)N1CCC[C@H]1c1ncc(-c2cccc(C#CC#Cc3cccc(-c4cnc([C@@H]5CCCN5C(=O)[C@H](NC(=O)OC)c5ccccc5)[nH]4)c3)c2)[nH]1)c1ccccc1 [Compound 10a]")
"126 to 128 °C"
>>> recorded_result("COC(=O)N[C@@H](CC(C)C)C(=O)N1CCC[C@H]1c1ncc(-c2ccc(C#CC#Cc3ccc(-c4cnc([C@@H]5CCCN5C(=O)[C@H](CC(C)C)NC(=O)OC)[nH]4)cc3)cc2)[nH]1 [Compound 5b]")
"124 to 126 °C"

* * *

- assay-procedure: Cytotoxicity assay (intracellular ATP levels) in Huh5-2 replicon cells
- Format: cell-based
- settings: human, Huh5-2 cells, read-out: HCV Replicon 1b CC50
- Experimental: All synthesized compounds were tested against HCV genotype 1b Con-1 subgenomic replicon in the Huh-5-2 stable cell line. Specifically, their activity against viral replication was estimated by measuring firefly luciferase, which is co-expressed by the bicistronic replicon, and their half-maximal effective concentrations (EC50) were determined. […] Intracellular ATP levels were measured to determine the cytotoxicity of the compounds in the treated cells. […]
recorded-endpoint: CC50 at 72 h

>>> recorded_result("COC(=O)N[C@H](C(=O)N1CCC[C@H]1c1ncc(-c2ccc(C#CC#Cc3ccc(-c4cnc([C@@H]5CCCN5C(=O)[C@@H](NC(=O)OC)c5ccccc5)[nH]4)cc3)cc2)[nH]1)c1ccccc1")
"> 100 µM"
>>> recorded_result("CCOC(=O)N[C@H](C(=O)N1CCC[C@H]1c1ncc(-c2ccc(C#CC#Cc3ccc(-c4cnc([C@@H]5CCCN5C(=O)[C@@H](NC(=O)OCC)C(C)C)[nH]4)cc3)cc2)[nH]1)C(C)C")
"> 100 µM"
>>> recorded_result("CCCCOC(=O)N[C@H](C(=O)N1CCC[C@H]1c1ncc(-c2ccc(C#CC#Cc3ccc(-c4cnc([C@@H]5CCCN5C(=O)[C@@H](NC(=O)OCCCC)C(C)C)[nH]4)cc3)cc2)[nH]1)C(C)C")
"> 100 µM"
